Recorded TGI for the following compounds
Tested on: LOX IMVI melanoma
Assay: NCI tumour cell line growth inhibition, 48 h

The cases that follow already have their TGI on record.
CC[C@@]1(O)C(=O)N(CCN(C)C)Cc2c1cc1n(c2=O)Cc2cc3ccccc3nc2-1
> 50.7 µM
CN(C)/C=C/C(=O)c1cccc(C(=O)/C=C/N(C)C)n1
> 100 µM
CC(=O)O[C@H]1Cc2c([nH]c3ccccc23)[C@@H](c2ccc(Cl)cc2)N1C(=O)CCNC(C)(C)C
6.72 µM
Cc1cc(C)c(N)c(CO)c1
> 100 µM
c1ccc2c(Nc3ccc4c(c3)OCO4)c3ccoc3nc2c1
41.7 µM

Next compound, please.
Query: Entry COC(=O)C1=C(C)NC(C)=C(C(=O)OC)C1c1ccccc1[N+](=O)[O-] needs its TGI filled in; supply it.
Response: > 100 µM
